These data points were gathered from patent US20220324835A1.

- target desc: Cbl-b (Homo sapiens, UniProt Q13191)
- protocol notes: Cbl-b activity assay (Cbl-b inhibition assay), TR-FRET of Cbl-b interaction with UbcH5B-Ub
- Assay type: biochemical
- measurement parameters: assay buffer with 100 mM NaCl, 60 nM Src kinase; read-out: Cbl-b activity IC50
- Procedure: The ability of candidate compounds to inhibit Cbl-b activity was measured by monitoring the interaction of Cbl-b with UbcH5B-Ub in the presence of the candidate compound. Fluorescently labeled UbcH5B-Ub was prepared by conjugating ubiquitin (Ub), labeled at its N-terminus with Bodipy-Fluorescein, to UbcH5B, an E2 enzyme, harboring a cysteine to lysine mutation at position 85. […]
measurement type: IC50

{"structure string": "Cc1cccc2nc(C(=O)Nc3cccc([C@H](C)Sc4nncn4C)c3)ccc12", "target desc": "Cbl-b (Homo sapiens, UniProt Q13191)", "meas value": "301 to 1000 nM"}
{"structure string": "Cn1cnnc1CC1(c2cccc(N3Cc4c(cc(CN5CCc6cnccc6C5)cc4C(F)(F)F)C3=O)c2)COC1", "target desc": "Cbl-b (Homo sapiens, UniProt Q13191)", "meas value": "< 100 nM"}
{"structure string": "C[C@H](Sc1nncn1C)c1cccc(NC(=O)c2cc(C(=O)N3C[C@@H](O)C[C@@H]3C)ccn2)c1", "target desc": "Cbl-b (Homo sapiens, UniProt Q13191)", "meas value": "3000 to 10000 nM"}
{"structure string": "C[C@H](Cc1nncn1C)c1cccc(N2Cc3c(cc(C(=O)N4CC[C@H](O)C4)cc3C3CC3)C2=O)c1", "target desc": "Cbl-b (Homo sapiens, UniProt Q13191)", "meas value": "< 100 nM"}

---

- target desc: Cbl-b (residues 36-427) (Homo sapiens)
- Sequence (Q13191 36-427): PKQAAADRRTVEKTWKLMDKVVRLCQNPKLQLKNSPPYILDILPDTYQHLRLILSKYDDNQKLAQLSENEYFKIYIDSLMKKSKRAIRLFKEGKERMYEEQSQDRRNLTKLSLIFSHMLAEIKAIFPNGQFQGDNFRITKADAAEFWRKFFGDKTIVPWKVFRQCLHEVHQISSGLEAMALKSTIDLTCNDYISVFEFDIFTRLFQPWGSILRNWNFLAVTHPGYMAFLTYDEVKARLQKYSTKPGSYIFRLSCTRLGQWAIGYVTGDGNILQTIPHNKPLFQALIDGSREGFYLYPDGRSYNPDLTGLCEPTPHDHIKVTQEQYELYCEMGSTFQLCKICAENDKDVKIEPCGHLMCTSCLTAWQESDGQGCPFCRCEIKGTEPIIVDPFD
- protocol notes: Cbl-b binding assay (SPR, Biacore T200)
- measurement parameters: 20° C., 1:1 binding model
pKd: −log10 of the molar value.
measurement type: pKd

{"compound": "Cc1cc(C(=O)Nc2cccc([C@H](C)Cc3nncn3C)c2)nc(C2CC2)n1", "meas value": "> 7.00"}
{"compound": "C[C@H](Sc1nncn1C)c1cccc(NC(=O)c2cc(C(=O)N3C[C@H](O)C[C@H]3C)ccn2)c1", "meas value": "< 5.00"}
{"compound": "CN[C@@H]1CCN(C(=O)c2ccnc(C(=O)Nc3cccc([C@H](C)Cc4nncn4C)c3)c2)C1", "meas value": "5.52 to 6.00"}
{"compound": "CC(=O)N1CCN(c2ccc3cnc(C(=O)Nc4cccc([C@H](C)Cc5nncn5C)c4)cc3c2)CC1 [Compound 211, 2,2,2-trifluoroacetate]", "meas value": "6.52 to 7.00"}
{"compound": "C[C@@H](c1cccc(N2Cc3c(cccc3C(F)(F)F)C2=O)c1)C(F)(F)c1nncn1C [Compound 467a]", "meas value": "6.00 to 6.52"}
{"compound": "C[C@H](Cc1nncn1C)c1cccc(NC(=O)c2cc(C(=O)N3CC[C@H](O)C3)ccc2F)c1", "meas value": "5.00 to 5.52"}
{"compound": "C[C@H](Cc1nncn1C)c1cccc(NC(=O)c2cc(C(=O)N3CCC(O)C3(C)C)ccn2)c1 (stereo partly shown)", "meas value": "6.52 to 7.00"}

---

- Test system: primary human total T-cells
- protocol notes: T-cell activation assessed by cytokine secretion (GM-CSF, IFNγ, TNFα)
- Type: cell-based
- measurement parameters: CD3/CD28 stimulation, 10 μM, read-out: GM-CSF secretion

{"compound": "CNCc1ccc(C(=O)Nc2cccc([C@H](C)Cc3nncn3C)c2)nc1C1CC1 [Compound 376]", "fold induction at 10 µM": "> 4"}
{"compound": "C[C@@H](c1cc2c(c(C(F)(F)F)c1)CN(c1cccc(C3(Cc4nncn4C)COC3)c1)C2=O)N1CC[C@H](F)C1 [Compound 412]", "fold induction at 10 µM": "> 4"}
{"compound": "C[C@H](Cc1nncn1C)c1cccc(N2Cc3c(cc(CN4CC[C@](C)(O)C4)cc3C(F)(F)F)C2=O)c1 [Compound 398]", "fold induction at 10 µM": "> 4"}
{"compound": "Cn1cnnc1[C@@H]1C[C@@H]1c1cccc(N2Cc3c(ccnc3C(F)(F)F)C2=O)c1 [Compound 369]", "fold induction at 10 µM": "2.01 to 4"}
{"compound": "Cc1cc(C(=O)Nc2cccc([C@@H](C)Cc3nncn3C)c2)nc(C2CC2)n1 [Compound 325]", "fold induction at 10 µM": "2.01 to 4"}
{"compound": "C[C@H](Sc1nncn1C)c1cccc(NC(=O)c2cc(C(=O)N3CC[C@H](O)C3)ccn2)c1 [Compound 140]", "fold induction at 10 µM": "> 4"}
{"compound": "Cn1cnnc1C(F)(F)[C@](C)(F)c1cccc(N2Cc3c(cc(CN4CC[C@@H](C#N)C4)cc3C(F)(F)F)C2=O)c1 [Compound 455]", "fold induction at 10 µM": "> 4"}
